- MEASURED TARGET: Env of HIV-1 strain PVO.4 (HIV-1)
- METHOD DESCRIPTION: cell-based or functional assay
READOUT LABEL: neutralization IC50

# BINDER, READOUT LABEL, MEASURED RESULT
rows = [
    ("8ANC3430 (antibody, V domains shown) VH: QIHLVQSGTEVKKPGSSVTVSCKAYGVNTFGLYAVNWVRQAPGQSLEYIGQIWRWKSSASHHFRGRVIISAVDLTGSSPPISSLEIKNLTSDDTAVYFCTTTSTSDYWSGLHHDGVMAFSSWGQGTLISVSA VL: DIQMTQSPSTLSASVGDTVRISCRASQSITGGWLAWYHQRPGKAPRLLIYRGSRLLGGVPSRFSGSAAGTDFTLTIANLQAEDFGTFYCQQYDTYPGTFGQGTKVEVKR", "neutralization IC50", "0.206 µg/mL"),
    ("γ23κ11 (antibody, V domains shown) VH: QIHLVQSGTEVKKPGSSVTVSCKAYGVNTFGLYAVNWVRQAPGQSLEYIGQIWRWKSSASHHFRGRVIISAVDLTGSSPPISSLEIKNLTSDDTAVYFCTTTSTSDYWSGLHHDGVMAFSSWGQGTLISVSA VL: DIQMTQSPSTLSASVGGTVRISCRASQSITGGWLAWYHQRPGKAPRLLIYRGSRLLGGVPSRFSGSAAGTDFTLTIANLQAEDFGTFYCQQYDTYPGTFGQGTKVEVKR", "neutralization IC50", "0.103 µg/mL"),
    ("γ8κ11 (antibody, V domains shown) VH: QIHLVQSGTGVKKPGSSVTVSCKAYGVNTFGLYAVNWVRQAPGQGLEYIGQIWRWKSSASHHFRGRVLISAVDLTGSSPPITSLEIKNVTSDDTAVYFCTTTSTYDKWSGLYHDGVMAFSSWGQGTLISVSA VL: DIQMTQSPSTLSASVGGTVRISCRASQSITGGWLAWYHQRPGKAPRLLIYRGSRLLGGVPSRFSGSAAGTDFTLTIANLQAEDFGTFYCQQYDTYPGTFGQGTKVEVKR", "neutralization IC50", "8.16 µg/mL"),
    ("γ59κ5 (antibody, V domains shown) VH: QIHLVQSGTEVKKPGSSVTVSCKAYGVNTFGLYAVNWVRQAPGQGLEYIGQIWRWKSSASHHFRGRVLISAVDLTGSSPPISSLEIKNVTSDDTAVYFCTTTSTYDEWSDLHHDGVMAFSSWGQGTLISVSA VL: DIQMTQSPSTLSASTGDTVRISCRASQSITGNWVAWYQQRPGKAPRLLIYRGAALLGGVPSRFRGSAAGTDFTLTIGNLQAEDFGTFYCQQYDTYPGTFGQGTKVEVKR", "neutralization IC50", "> 15 µg/mL"),
    ("γ4κ18 (antibody, V domains shown) VH: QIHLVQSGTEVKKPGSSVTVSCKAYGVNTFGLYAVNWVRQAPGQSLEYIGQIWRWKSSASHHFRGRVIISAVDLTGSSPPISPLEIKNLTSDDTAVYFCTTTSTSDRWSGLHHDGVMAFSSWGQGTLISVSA VL: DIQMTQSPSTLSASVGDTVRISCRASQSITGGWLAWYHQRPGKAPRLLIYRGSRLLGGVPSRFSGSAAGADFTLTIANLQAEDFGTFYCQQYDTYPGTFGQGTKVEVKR", "neutralization IC50", "> 15 µg/mL"),
]
